# Test system: C. elegans
# TEST_PROTOCOL: microbe, parasite or virus in culture
# STUDY_CONDITIONS: Caenorhabditis elegans, 0 h, read-out: Percentage of motility inhibition 0 h, Table S2, C. elegans SS assay, 110 μM, 0 h, averages of 4 data points
MEASURED_ENDPOINT: inhibition at 110 µM (%)
Hi! Could you send only the number? It should be in %, unit omitted.

Below, each entry is followed by its recorded inhibition at 110 µM result.
COMPOUND: C[C@H](CO)C1=C(O)C(=O)c2c(ccc3c2CCCC3(C)C)C1=O
SYSTEM_UNDER_TEST: C. elegans
UNIT_NAME: %
NUMERIC_VALUE: 18
//
COMPOUND: COc1cc(-c2cc(=O)c3c(O)cc(O)cc3o2)cc(OC)c1O
SYSTEM_UNDER_TEST: C. elegans
UNIT_NAME: %
NUMERIC_VALUE: 31
//
COMPOUND: CC(CC(=O)C[C@@H](C)[C@H]1CC(=O)[C@@]2(C)C3=C(C(=O)[C@@H](O)[C@]12C)[C@@]1(C)CC[C@H](O)C(C)(C)[C@@H]1C[C@@H]3O)C(=O)O (some centres unmarked)
SYSTEM_UNDER_TEST: C. elegans
UNIT_NAME: %
NUMERIC_VALUE: 0
//
COMPOUND: O=C1c2c(O)cc(O)cc2OC(c2ccc(O)c(O)c2)C1O (centres unmarked)
SYSTEM_UNDER_TEST: C. elegans
UNIT_NAME: %
NUMERIC_VALUE: 10
//
COMPOUND: COc1cc(-c2oc3cc(O)cc(O)c3c(=O)c2O)ccc1O
SYSTEM_UNDER_TEST: C. elegans
UNIT_NAME: %
NUMERIC_VALUE: 22

Task: For O=C(/C=C/c1ccccc1)OC[C@H]1O[C@@H](O[C@@H]2OC=C[C@H]3[C@H](O)[C@@H]4O[C@]4(CO)[C@@H]23)[C@H](O)[C@@H](O)[C@@H]1O [Picroside I] , write its inhibition at 110 µM.
Output: 6

Task: Answer with the recorded inhibition at 110 µM of CC(=O)NS(=O)(=O)c1ccc(NC(=O)c2ccccc2C(=O)O)cc1 [Phthalylsulfacetamide] only.
Output: 32

Task: Provide one value: measured inhibition at 110 µM of COc1ccc(C(=O)O[C@H]2CC[C@@]3(C)[C@@H]4CC[C@H]5[C@]6(O)C[C@H](O)[C@@]7(O)[C@@H](CN8C[C@@H](C)CC[C@H]8[C@@]7(C)O)[C@]6(O)C[C@@]53O[C@]24O)cc1OC
Output: 4

* * *

# Test system: C. elegans
# TEST_PROTOCOL: microbe, parasite or virus in culture
# STUDY_CONDITIONS: Caenorhabditis elegans, 0 h, read-out: Percentage of motility inhibition 0 h, Table S2, C. elegans SS assay, 110 μM, 0 h, averages of 4 data points
inhibition at 110 µM listing for selected molecules.
Could you give me the number in %? Just the number is fine.

Task: Indicate its recorded inhibition at 110 µM; the molecule in question is C[C@@H]1[C@H]2[C@H](O[C@@H]3O[C@H](CO)[C@@H](O)[C@H](O)[C@H]3O)OC=C(C(=O)O)[C@H]2C[C@@H]1O [Loganic acid]
Output: 28

Task: Using known records, supply inhibition at 110 µM for CC(C)=CCc1c(O)ccc(C(=O)/C=C/c2ccc(O)cc2)c1O [Isobavachalcone]
Output: 6

* * *

Percentage of motility inhibition 0 h: recorded values
# Test system: C. elegans
# STUDY_CONDITIONS: Table S2, C. elegans SS assay, 110 μM, 0 h, averages of 4 data points
# output: bare number, implied unit %

Task: Please give measured Percentage of motility inhibition 0 h of the following entry: CC(C)=C[C@H]1C[C@](C)(O)[C@@H]2[C@H]3CC[C@@H]4[C@@]5(C)CC[C@H](O[C@@H]6OC[C@H](O)[C@H](O[C@@H]7O[C@H](CO)[C@@H](O)[C@H](O)[C@H]7O[C@@H]7OC[C@@H](O)[C@H](O)[C@H]7O)[C@H]6O[C@@H]6O[C@@H](C)[C@H](O)[C@@H](O)[C@H]6O)C(C)(C)[C@@H]5CC[C@@]4(C)[C@@]34CO[C@@]2(C4)O1 [Jujuboside B]
Output: 0

Task: // Input: CC[C@](C)(C#N)O[C@@H]1O[C@H](CO)[C@@H](O)[C@H](O)[C@H]1O . Output its Percentage of motility inhibition 0 h only.
Output: 11

Task: Let me know recorded Percentage of motility inhibition 0 h for CC(=O)O.NCc1ccc(S(N)(=O)=O)cc1 [Mafenide (Acetate)] , thanks.
Output: 21

Task: Please supply the value of reported Percentage of motility inhibition 0 h for the item C[C@@H]1CC[C@]2(C(=O)O[C@@H]3O[C@H](CO)[C@@H](O)[C@H](O)[C@H]3O)CC[C@]3(C)C(=CC[C@@H]4[C@@]5(C)C[C@@H](O)[C@H](O)[C@@](C)(CO)[C@@H]5CC[C@]43C)[C@@H]2[C@]1(C)O [Niga-ichigoside F1]
Output: 0

* * *

# Tested on: C. elegans
# TEST_PROTOCOL: microbe, parasite or virus in culture
# STUDY_CONDITIONS: Caenorhabditis elegans, 0 h, read-out: Percentage of motility inhibition 0 h, Table S2, C. elegans SS assay, 110 μM, 0 h, averages of 4 data points
MEASURED_ENDPOINT: inhibition at 110 µM (%)
Field: numeric (%). Do not append units.

COMPOUND: CC1=CCC(C(C)C)=CC1
MEASURED_ENDPOINT: inhibition at 110 µM
NUMERIC_VALUE: 6
//
COMPOUND: O=P(O)(O)OC(Cn1cncn1)(Cn1cncn1)c1ccc(F)cc1F
MEASURED_ENDPOINT: inhibition at 110 µM
NUMERIC_VALUE: 17

In the following, a different compound is considered.
Task: Read off the recorded inhibition at 110 µM for CCC12C=CCN3CC[C@@]4(c5ccc(OC)cc5N(C)[C@H]4[C@@](O)(C(=O)OC)[C@@H]1OC(C)=O)[C@@H]32 (stereo partly shown)
Output: 14

* * *

# System: C. elegans
# TEST_PROTOCOL: microbe, parasite or virus in culture
# STUDY_CONDITIONS: Caenorhabditis elegans, 0 h, read-out: Percentage of motility inhibition 0 h, Table S2, C. elegans SS assay, 110 μM, 0 h, averages of 4 data points
Tick t if inhibition at 110 µM is 8% or greater. Tick f if inhibition at 110 µM is less than 8%.

Study these solved cases before continuing.
MOLECULE: Cn1nnc(-c2ccc(-c3ccc(N4C[C@H](CO)OC4=O)cc3F)cn2)n1
CLASS_NAME: t
//
MOLECULE: Cc1oc(=O)oc1CN1CCN(c2cc3c(cc2F)c(=O)c(C(=O)O)c2n3C(C)S2)CC1 (centres unmarked)
CLASS_NAME: t
//
MOLECULE: CN1Cc2c(ccc3c2OCO3)[C@@H]2[C@H]1c1cc3c(cc1C[C@@H]2O)OCO3
CLASS_NAME: f
//
MOLECULE: CCCCC1C(=O)N(c2ccccc2)N(c2ccc(O)cc2)C1=O (centres unmarked)
CLASS_NAME: f
//
MOLECULE: C[C@@H]1O[C@@H](Oc2cc(O)c3c(=O)c(O[C@@H]4O[C@@H](C)[C@H](O)[C@@H](O)[C@H]4O)c(-c4ccc(O)cc4)oc3c2)[C@H](O)[C@H](O)[C@H]1O
CLASS_NAME: f

Task: Threshold query (inhibition at 110 µM >= 8%) on C[C@@H]1O[C@@H](O[C@H]2[C@H](O[C@H]3CC[C@]4(C)[C@H]5CC=C6[C@@H]7CC(C)(C)CC[C@]7(C(=O)O)CC[C@@]6(C)[C@]5(C)CC[C@H]4C3(C)C)OC[C@H](O[C@@H]3O[C@H](CO)[C@@H](O)[C@H](O)[C@H]3O)[C@@H]2O)[C@H](O)[C@H](O)[C@H]1O [Hederacolchiside A1]
Output: f

Task: Does Nc1nc(=O)c2nc(CNc3ccc(C(=O)N[C@@H](CCC(=O)O)C(=O)O)cc3)cnc2[nH]1 have a reported inhibition at 110 µM of at least 8%?
Output: t

Task: Hello, I need to know if COc1cc(O)ccc1/C=C/C(=O)c1ccc(O)cc1 has measured inhibition at 110 µM not below 8%. Thanks!
Output: t

Task: Does inhibition at 110 µM meet or surpass 8% for O=C(Nc1ncc([N+](=O)[O-])s1)c1ccccc1O [Tizoxanide] ?
Output: t

Task: Hi, just wondering whether CC[C@H]1CN2CC[C@]3(C(=O)Nc4ccccc43)[C@@H]2C[C@@H]1/C(=C\OC)C(=O)OC shows inhibition at 110 µM of 8% or higher.
Output: f

* * *

The following compounds are listed with their measured Percentage of motility inhibition 0 h values.
# Test system: C. elegans
# STUDY_CONDITIONS: Table S2, C. elegans SS assay, 110 μM, 0 h, averages of 4 data points
Numeric answer only, unit % assumed.

Worked cases, Percentage of motility inhibition 0 h given:
COMPOUND: COC(=O)CC(NC(=O)[C@@H](NC(=O)OC(C)C)C(C)C)c1ccc(Cl)cc1 (stereo partly drawn) [Valifenalate]
UNIT_NAME: %
Percentage of motility inhibition 0 h: 26
--
COMPOUND: C=C(CCC=C(C)C)[C@H]1CC[C@]2(C)[C@@H]1[C@H](O)C[C@@H]1[C@@]3(C)CC[C@H](O)C(C)(C)[C@@H]3[C@@H](O[C@@H]3O[C@H](CO)[C@@H](O)[C@H](O)[C@H]3O)C[C@]12C [Ginsenoside Rk3]
UNIT_NAME: %
Percentage of motility inhibition 0 h: 0

Task: State, in one line, measured Percentage of motility inhibition 0 h of O=c1c2cc(O[C@@H]3O[C@H](CO)[C@@H](O)[C@H](O)[C@H]3O)c(O)cc2oc2cc(O)c([C@@H]3O[C@H](CO)[C@@H](O)[C@H](O)[C@H]3O)c(O)c12
Output: 7
